experiment: Zn^2+ fluorescence titration, Job's plot, detection limit, binding constant, metal ion selectivity and TPEN reversibility in HEPES/DMSO; details: HEPES 50 mM, 100 mM KNO3, 10% DMSO, 10 mM EGTA, pH 7.21; read-out: dissociation constant (Kd) of the complex between Zn^2+ and NapBu-BPEA
value.type: pKd
FYI, pKd means -log10 of a concentration in mol per litre.

Query `CCCCN1C(=O)c2cccc3c(NCCN(Cc4ccccn4)Cc4ccccn4)ccc(c23)C1=O` yields pKd of 8.30
